Molecular target: Muscarinic acetylcholine receptor M1 (Homo sapiens); also: assay procedure not described here
Sequence (P11229 whole entry): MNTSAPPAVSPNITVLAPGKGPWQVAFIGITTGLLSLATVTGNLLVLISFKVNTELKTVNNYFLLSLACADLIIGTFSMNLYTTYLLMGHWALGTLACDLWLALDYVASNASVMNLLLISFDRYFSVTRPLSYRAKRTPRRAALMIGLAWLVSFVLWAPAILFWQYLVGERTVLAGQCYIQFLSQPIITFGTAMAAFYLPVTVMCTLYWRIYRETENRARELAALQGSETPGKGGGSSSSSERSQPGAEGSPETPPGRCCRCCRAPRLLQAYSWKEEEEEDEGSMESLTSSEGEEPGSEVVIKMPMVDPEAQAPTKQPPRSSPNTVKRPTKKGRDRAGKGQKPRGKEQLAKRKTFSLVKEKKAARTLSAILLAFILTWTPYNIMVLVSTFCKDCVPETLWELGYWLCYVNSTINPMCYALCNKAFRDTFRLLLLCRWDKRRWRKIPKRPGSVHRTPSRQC
Format: functional, cell-based
metric_name: AC50

Q) Recall the recorded AC50 for Cc1cccc(C)c1NC(=O)CN(CC(=O)O)CC(=O)O [LIDOFENIN] with Muscarinic acetylcholine receptor M1 (Homo sapiens) and state it.
A) > 30 µM

Q) Recall the recorded AC50 for COc1cccc2c1C(=O)c1c(O)c3c(c(O)c1C2=O)C[C@@](O)(C(=O)CO)C[C@@H]3O[C@H]1C[C@H](N)[C@H](O[C@@H]2CCCCO2)[C@H](C)O1 [PIRARUBICIN] with Muscarinic acetylcholine receptor M1 (Homo sapiens) and state it.
A) > 10 µM

Q) Recall the recorded AC50 for O=C(OOC(=O)c1ccccc1)c1ccccc1 [BENZOYL PEROXIDE] with Muscarinic acetylcholine receptor M1 (Homo sapiens) and state it.
A) > 30 µM

Q) Recall the recorded AC50 for CC(=O)OCC(=O)[C@@]1(O)CC[C@H]2[C@@H]3C[C@H](C)C4=CC(=O)C=C[C@]4(C)[C@H]3[C@@H](O)C[C@@]21C [METHYLPREDNISOLONE ACETATE] with Muscarinic acetylcholine receptor M1 (Homo sapiens) and state it.
A) > 30 µM

Q) Recall the recorded AC50 for CN1CCC(N(Cc2cccs2)c2ccccc2)CC1 [THENALIDINE] with Muscarinic acetylcholine receptor M1 (Homo sapiens) and state it.
A) 0.762 µM

Q) Recall the recorded AC50 for CCCCCCCCCCCCCCCC(=O)OC[C@H](COP(=O)([O-])OCC[N+](C)(C)C)OC(=O)CCCCCCCCCCCCCCC [COLFOSCERIL PALMITATE] with Muscarinic acetylcholine receptor M1 (Homo sapiens) and state it.
A) > 30 µM

Q) Recall the recorded AC50 for C[C@]12CC[C@@H]3c4ccc(OC(=O)N(CCCl)CCCl)cc4CC[C@H]3[C@@H]1CC[C@@H]2OP(=O)(O)O [ESTRAMUSTINE PHOSPHATE] with Muscarinic acetylcholine receptor M1 (Homo sapiens) and state it.
A) > 30 µM

Q) Recall the recorded AC50 for CN1CCc2c(c3ccccc3n2Cc2ccccc2)C1 [MEBHYDROLIN] with Muscarinic acetylcholine receptor M1 (Homo sapiens) and state it.
A) 1.96 µM
